# assay_comment: mitochondrial membrane potential change in A549 cells, profiling panel, cell-based, JC-1 fluorescence, basal, 24 h, 100 nL (AID 1138);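 also: A549 lung adenocarcinoma cells under basal conditions with no added stimulus; test concentration not given here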
# cond: higher = more signal
Quick rule: z-score of at least -0.1 means met, below that means not met.

INPUT: Given the entry `CO[C@H]1COC(=O)CC=C[C@H](C)[C@@H](OC)COC(=O)[C@@H](C)NC(=O)CC=C[C@@H]1C` , answer whether its z-score meets or surpasses -0.1.
OUTPUT: not met

INPUT: Check if z-score >= -0.1 (inclusive). Item: C[C@H]1CC[C@H]2C(=O)OC(CO)CN2[C@@H]1c1ccc(Br)cc1 (stereo not given in full)
OUTPUT: not met

INPUT: Please tell me: is the compound `COc1ccc(O[C@H]2C=C[C@@H](c3ccccc3)O[C@@H]2COC(=O)CCC(C)=NOC[C@@H](O)[C@H]2O[C@@H]3OC(C)(C)O[C@@H]3[C@H]2O)cc1` at or over -0.1 in terms of z-score?
OUTPUT: not met

INPUT: Does z-score meet or surpass -0.1 for `O=C1[C@H]2[C@H]3[C@H](O)[C@H](O)CC(=NOCc4ccccc4)[C@@H]3CC[C@H]2C(=O)N1Cc1ccc2c(c1)OCO2` ?
OUTPUT: not met

INPUT: Threshold query (z-score >= -0.1) on `CCOC(=O)CCN1C(=O)[C@H]2[C@H]3[C@H](O)[C@H](O)CC(=NOCC(C)C)[C@H]3CC[C@H]2C1=O`
OUTPUT: met

INPUT: Given `COC(=O)[C@@H]1CC[C@H](C)[C@@H](c2ccc(C)cc2)N1C(=O)c1ccc(C=NO[C@H](C)c2cn([C@@H]3COC[C@H]3O)nn2)cc1` , state whether its z-score is at least -0.1.
OUTPUT: not met

INPUT: # bool: z-score of `C[C@H]1Cc2c(COc3ccccc3)nc3c(c2CO1)CN(CCOc1ccccc1)CC3` >= -0.1
OUTPUT: met

INPUT: Tell me whether z-score is at least -0.1 here: `CC(CCN1CCCCc2nc(C)c(C)cc21)=NO[C@@H](C)c1cn([C@H](CO)Cc2ccccc2)nn1`
OUTPUT: met

INPUT: Could you please find out whether `COC(=O)[C@@H]1CC[C@@H](C)[C@H](c2ccc(Br)cc2)N1` has z-score that meets -0.1 or exceeds it?
OUTPUT: met

INPUT: Entry `CCN1C(=O)[C@H]2[C@H]3[C@H](O)[C@H](O)CC(=NOC[C@H]4O[C@H](c5ccccc5)C=C[C@@H]4Oc4ccc(OC)cc4)[C@@H]3CC[C@H]2C1=O` : is its z-score no less than -0.1?
OUTPUT: met

INPUT: Tell me whether z-score is at least -0.1 here: `CC(=O)OC[C@H]1O[C@@H](ON=C(C)CCN2CCCc3nc(C)c(C)cc32)[C@H](OC(C)=O)[C@@H](OC(C)=O)[C@@H]1OC(C)=O`
OUTPUT: not met

INPUT: Determine whether measured z-score meets or exceeds -0.1 for `C=CC[C@@H]1C=C[C@H](ON=C(C)CCC(=O)OC[C@H]2O[C@H](C#Cc3ccccc3)C=C[C@@H]2Oc2ccc(C)cc2)[C@@H](CO)O1`
OUTPUT: met

INPUT: Determine whether measured z-score meets or exceeds -0.1 for CCOC(=O)[C@H](Cc1ccccc1)NC(=O)CCC1CC(OC(=O)NCc2cccc3ccccc23)CC2(CCCC(COC(=O)NCc3cccc(C(F)(F)F)c3)O2)O1 (stereo not given in full)
OUTPUT: met

INPUT: Record `CC(C)CON=C1C[C@@H](O)[C@@H](O)[C@@H]2[C@@H]3C(=O)N(C(C)(C)C)C(=O)[C@@H]3CC[C@H]12` ; criterion: z-score no lower than -0.1. Met?
OUTPUT: not met

INPUT: Could you tell me if the measured z-score of `COCOc1ccc(Br)cc1C(=O)[C@@H]1O[C@H]1c1cccc(OC)c1` reaches -0.1 or more?
OUTPUT: met

// data source = PubChem BioAssay
